molecular target: Ras GEF SOS (Son of Sevenless) (Homo sapiens, UniProt Q07889); experiment: SOS-mediated nucleotide exchange on Ras (BODIPY-GDP fluorescence); details: SOS-mediated exchange of BODIPY-GDP for GTP on Ras
Sequence (Q07889 564-1049 limits assumed): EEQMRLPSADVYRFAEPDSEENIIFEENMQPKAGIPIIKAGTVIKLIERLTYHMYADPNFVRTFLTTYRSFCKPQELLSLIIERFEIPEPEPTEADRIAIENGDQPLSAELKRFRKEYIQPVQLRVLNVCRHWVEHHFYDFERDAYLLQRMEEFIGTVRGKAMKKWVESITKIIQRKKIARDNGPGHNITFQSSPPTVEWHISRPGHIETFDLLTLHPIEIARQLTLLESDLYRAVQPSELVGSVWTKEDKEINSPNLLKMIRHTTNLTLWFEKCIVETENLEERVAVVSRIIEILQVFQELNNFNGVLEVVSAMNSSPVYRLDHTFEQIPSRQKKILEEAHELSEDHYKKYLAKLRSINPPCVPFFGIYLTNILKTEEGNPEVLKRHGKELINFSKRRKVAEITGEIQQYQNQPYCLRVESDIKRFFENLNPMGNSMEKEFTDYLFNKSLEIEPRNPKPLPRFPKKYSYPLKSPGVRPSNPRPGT
Sequence (P01112 1-166 partner limits assumed): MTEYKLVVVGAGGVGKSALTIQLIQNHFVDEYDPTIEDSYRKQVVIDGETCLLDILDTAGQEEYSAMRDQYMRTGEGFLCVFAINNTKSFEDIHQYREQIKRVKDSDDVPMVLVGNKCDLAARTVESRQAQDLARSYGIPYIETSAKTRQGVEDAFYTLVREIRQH
pEC50: −log10 of the molar value. Counter-ions that a name gives are not always drawn.
Here the recorded pEC50 is given for each entry.

# compound, pEC50
data = [
    ("NCCc1cccc2c1nc(N1CCNCC1)n2Cc1ccc(C(F)(F)F)cc1 [Example 100, trifluoroacetate]", "5.30 to 6.00"),
    ("Clc1ccc(Cn2c(N3CCNCC3)nc3ncccc32)cc1", "4.00 to 4.52"),
    ("Cc1cc2c(nc(N3CCNCC3)n2Cc2ccc(F)c(Cl)c2)c(-c2ccccc2)c1C [Example 104, trifluoroacetate]", "5.30 to 6.00"),
    ("NCCNc1nc2ccccc2n1Cc1cc(F)cc(F)c1 [Example 15, trifluoroacetate]", "4.52 to 5.30"),
    ("Cc1cc2c(nc(N3CCNCC3)n2Cc2ccc(F)c(C)c2)c(Cl)n1", "4.52 to 5.30"),
    ("Cc1cc(Br)c2nc(NCCN)n(Cc3cc(C)c(F)c(C)c3)c2c1", "5.30 to 6.00"),
    ("O=C(O)Cc1cc(Cl)cc2c1nc(N1CCNCC1)n2Cc1ccc(F)c(Cl)c1", "> 6.00"),
    ("Cc1cc2c(nc(N3CCNCC3)n2Cc2ccc(F)c(Cl)c2)c(-c2ccnn2-c2ccc(C(C)C)cc2)c1C [Example 173, trifluoroacetate]", "4.52 to 5.30"),
]
